B1: SNAP91 (parent)
chain: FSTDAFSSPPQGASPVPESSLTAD

# Variants of: B1
# PROTOCOL_DESCRIPTION: protein stability index of a GFP-peptide fusion (GPS, HEK-293T) (PSI 1-6); higher = more stable;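 further: lentivirally expressed fusions sorted by FACS into six bins by GFP to DsRed ratio, PSI derived from sequencing read proportions per bin multiplied by bin number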
# STATED_CONDITIONS: c terminus: a fixed tail appended
Assign protein stability index to each entry below.
Numbers only.

A23L : 3.23
S20K : 3.09

# input for lookup
// query protein stability index value for entry S14R 2.88
